target.entity: CCR2 (Homo sapiens, UniProt P41597)
Construct: Membranes were prepared from THP-1 cells; endogenous in cells
Sequence (P41597 whole entry): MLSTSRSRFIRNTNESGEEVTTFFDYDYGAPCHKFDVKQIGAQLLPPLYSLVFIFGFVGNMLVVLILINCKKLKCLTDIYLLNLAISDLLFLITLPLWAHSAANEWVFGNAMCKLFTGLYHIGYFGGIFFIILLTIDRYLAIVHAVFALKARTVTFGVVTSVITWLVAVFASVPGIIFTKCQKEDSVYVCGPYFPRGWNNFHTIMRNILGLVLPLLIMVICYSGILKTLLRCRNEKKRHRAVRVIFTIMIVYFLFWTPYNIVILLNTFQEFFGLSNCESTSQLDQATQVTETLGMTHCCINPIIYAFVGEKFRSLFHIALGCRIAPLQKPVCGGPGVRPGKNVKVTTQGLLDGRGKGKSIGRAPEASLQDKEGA
protocol.text: CCR2 receptor membrane binding assay ([125I]MCP-1, THP-1 membranes, SPA beads)
study.conditions: THP-1 cell membranes, [125I]MCP-1 displacement, bound radioactivity after 8 h; read-out: hKi
Entries whose Ki is below 10 nM take true; entries at or above 10 nM take false.

compound: COc1nc(OCc2ccc(C(F)(F)F)cc2)c(C)c(C(=O)N2CCC(N[C@H]3CCOC[C@H]3OC)CC2)n1
assigned.label: true

compound: CO[C@@H]1COCC[C@@H]1NC1CCN(C(=O)c2nc(C(F)(F)F)nc(OCc3ccc(Cl)c(Cl)c3)c2C)CC1
assigned.label: false

compound: COC1COCCC1NC1CCN(C(=O)c2ncnc(OCc3ccc(C(F)(F)F)c(Cl)c3)c2C)CC1 (centres unmarked)
assigned.label: true

compound: COc1nc(OCc2ccc(C(C)(C)C)cc2)c(C)c(C(=O)N2CCC(N[C@H]3CCOC[C@H]3OC)CC2)n1
assigned.label: true

compound: COc1nc(OCc2ccc(C(F)(F)F)cc2)c(C)c(C(=O)N2CCC(N[C@@H]3CCOC[C@@H]3OC)CC2)n1
assigned.label: false

Problem: For the compound COc1nc(OCc2ccc(Cl)c(F)c2)c(C)c(C(=O)N2CCC(N[C@H]3CCOC[C@H]3OC)CC2)n1 , is Ki under 10 nM?
true

Problem: For the compound COC1COCCC1NC1CCN(C(=O)c2ncnc(OCc3cc(Cl)cc(Cl)c3)c2C)CC1 (centres unmarked) , is Ki under 10 nM?
false

Problem: For the compound COC1COCCC1NC1CCN(C(=O)c2ncnc(Oc3cccc(C(F)(F)F)c3)c2C)CC1 (centres unmarked) , is Ki under 10 nM?
false

Problem: For the compound CO[C@@H]1COCC[C@@H]1NC1CCN(C(=O)c2nccc(OCc3ccc(C(C)(C)C)cc3)c2C)CC1 , is Ki under 10 nM?
false

Problem: For the compound CO[C@H]1COCC[C@H]1NC1CCN(C(=O)c2nccc(OCc3ccc(C(C)(C)C)cc3)c2C)CC1 , is Ki under 10 nM?
false

Problem: For the compound COC1COCCC1NC1CCN(C(=O)c2ncnc(OCc3ccc(C(C)(C)C)cc3)c2C)CC1 (centres unmarked) , is Ki under 10 nM?
false

Problem: For the compound COc1nc(OCc2ccc(C(F)(F)F)c(Cl)c2)c(C)c(C(=O)N2CCC(N[C@@H]3CCOC[C@@H]3OC)CC2)n1 , is Ki under 10 nM?
true

Problem: For the compound CO[C@H]1COCC[C@H]1NC1CCN(C(=O)c2nc(C(F)(F)F)nc(OCc3ccc(C(C)(C)C)cc3)c2C)CC1 , is Ki under 10 nM?
true

Problem: For the compound CO[C@H]1COCC[C@H]1NC1CCN(C(=O)c2ncnc(OC[C@H]3CCC[C@@H](c4ccc(OC(F)(F)F)cc4)O3)c2C)CC1 , is Ki under 10 nM?
false
